Target: TRα (Homo sapiens, UniProt P10827)
Construct: expressed in transfected cells; host or cells: HEK293
Sequence (P10827 1-410 isoform P10827-2): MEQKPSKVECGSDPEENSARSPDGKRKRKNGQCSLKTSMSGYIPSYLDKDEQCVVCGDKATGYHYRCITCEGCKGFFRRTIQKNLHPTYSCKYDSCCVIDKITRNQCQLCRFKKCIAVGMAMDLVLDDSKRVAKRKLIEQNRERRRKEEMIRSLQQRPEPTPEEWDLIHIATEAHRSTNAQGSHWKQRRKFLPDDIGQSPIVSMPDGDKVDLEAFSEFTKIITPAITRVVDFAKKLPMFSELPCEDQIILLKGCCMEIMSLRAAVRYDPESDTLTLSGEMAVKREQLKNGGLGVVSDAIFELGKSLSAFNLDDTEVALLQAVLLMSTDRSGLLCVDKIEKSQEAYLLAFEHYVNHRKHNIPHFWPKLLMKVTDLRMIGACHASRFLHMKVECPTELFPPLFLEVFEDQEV
Experiment: TR reporter-gene assay (Gal4 DBD hybrid, luciferase), TRα
Assay type: cell-based
Conditions: HEK293-derived reporter cells, 24 hr treatment; read-out: TRα EC50
pEC50: −log10 of the molar value.
pEC50 reference

Sample answers from the record:
Query block: Item under review: Cc1c(F)c(CSCC(=O)O)cc(Cl)c1Cc1ccc(O)c(C(C)C)c1 . Reported pEC50?
Result block: 6.00 to 7.00

Query block: And for Cc1cc(CSCC(=O)O)c(F)c(Cl)c1Cc1ccc(O)c(C(C)C)c1 ?
Result block: 6.00 to 7.00

Continuing:
Query block: Any idea what pEC50 was measured for Cc1cc(CSCC(=O)O)cc(Cl)c1Cc1ccc(O)c(C(C)C)c1 ?
Result block: 7.00 to 8.00

Query block: Would you kindly repeat that for Cc1cc([S+]([O-])CC(=O)O)cc(Cl)c1Cc1ccc(O)c(C(C)C)c1 (stereo not drawn) ?
Result block: < 6.00

Query block: Input CC(C)c1c(O)ccc(Cc2c(Cl)cc(C(C)C(=O)O)cc2Cl)c1F (stereo not drawn)
Result block: 6.00 to 7.00

Query block: Note, next up: CC(C)c1c(O)ccc(Cc2c(Cl)cc(CNCC(=O)O)cc2Cl)c1F
Result block: 7.00 to 8.00

Query block: Next compound: CC(C)c1cc(Cc2c(Cl)cc(CC(=O)O)cc2Cl)ccc1O
Result block: 6.00 to 7.00

Query block: How about O=C(O)Cc1cc(Cl)c(Cc2ccc(O)c(CN3CCCC3=O)c2)c(Cl)c1 ?
Result block: < 6.00

Query block: Moving on to the next compound: CC(C)c1cc(Cc2c(Cl)cc(N(C)CC(=O)O)cc2Cl)ccc1O
Result block: < 6.00

###

target: TRβ (Homo sapiens); construct: expressed in transfected cells; host or cells: HEK293; experiment: TR reporter-gene assay (Gal4 DBD hybrid, luciferase), TRβ; type: cell-based; settings: HEK293-derived reporter cells, 24 hr treatment; read-out: TRβ EC50
pEC50: −log10 of the molar value.
MEASUREMENT TYPE: pEC50

// solved cases for pEC50 follow
Query block: What reported pEC50 corresponds to CC(C)c1cc(Cc2c(Cl)cc(CCC(=O)O)c(F)c2Cl)ccc1O on TRβ (Homo sapiens)?
Result block: 7.00 to 8.00

Query block: Another molecule: CC(C)c1cc(Cc2c(Cl)cc(CNCC(=O)O)c(F)c2Cl)ccc1O
Result block: 6.00 to 7.00

Query block: Please do the same for CC(C)c1cc(Cc2c(Cl)cc(/C=C/C(=O)O)cc2Cl)ccc1O as well.
Result block: 7.00 to 8.00

Next:
Query block: Give recorded pEC50 with TRβ (Homo sapiens) for the following molecule: CC(C)c1cc(Cc2c(Cl)cc(SCC(=O)O)cc2Cl)ccc1O
Result block: 6.00 to 7.00

Query block: Could you do the same for CC(C)c1c(O)ccc(Cc2c(Cl)cc(CCC(=O)O)c(F)c2Cl)c1F , please?
Result block: 7.00 to 8.00

Query block: Thanks! And CC(C)c1cc(Cc2c(Cl)cc(C[S+]([O-])CC(=O)O)cc2Cl)ccc1O (stereo not drawn) [Compound 96] ?
Result block: < 6.00

Query block: Try this molecule too: CC(C)c1cc(Cc2c(Cl)cc(OC(F)C(=O)O)cc2Cl)ccc1O (stereo not drawn)
Result block: 6.00 to 7.00

Query block: Next record, please: C/C(=C\c1cc(Cl)c(Cc2ccc(O)c(C(C)C)c2)c(C)c1F)C(=O)O
Result block: 7.00 to 8.00

Query block: What would you report for Cc1c(F)c(SCC(=O)O)cc(Cl)c1Cc1ccc(O)c(C(C)C)c1 ?
Result block: 6.00 to 7.00

###

target: recombinant human FAAH (rhFAAH) (Homo sapiens, UniProt O00519); construct: purchased Cayman Chemical (Ann Arbor, MI, USA); experiment: FAAH substrate evaluation (formation of acid metabolite, LC-MS/MS); type: biochemical; parameters: key: A: ke is equal to or less than 1.0; B: ke is greater than 1.0 and less than or equal to 2.5; C: ke is greater than 2.5; NC: no conversion; conditions: 0.5 ng/μL rhFAAH, 1 μM test compound, pH 8.0, room temperature, 0-60 minutes
Sequence (O00519 whole entry): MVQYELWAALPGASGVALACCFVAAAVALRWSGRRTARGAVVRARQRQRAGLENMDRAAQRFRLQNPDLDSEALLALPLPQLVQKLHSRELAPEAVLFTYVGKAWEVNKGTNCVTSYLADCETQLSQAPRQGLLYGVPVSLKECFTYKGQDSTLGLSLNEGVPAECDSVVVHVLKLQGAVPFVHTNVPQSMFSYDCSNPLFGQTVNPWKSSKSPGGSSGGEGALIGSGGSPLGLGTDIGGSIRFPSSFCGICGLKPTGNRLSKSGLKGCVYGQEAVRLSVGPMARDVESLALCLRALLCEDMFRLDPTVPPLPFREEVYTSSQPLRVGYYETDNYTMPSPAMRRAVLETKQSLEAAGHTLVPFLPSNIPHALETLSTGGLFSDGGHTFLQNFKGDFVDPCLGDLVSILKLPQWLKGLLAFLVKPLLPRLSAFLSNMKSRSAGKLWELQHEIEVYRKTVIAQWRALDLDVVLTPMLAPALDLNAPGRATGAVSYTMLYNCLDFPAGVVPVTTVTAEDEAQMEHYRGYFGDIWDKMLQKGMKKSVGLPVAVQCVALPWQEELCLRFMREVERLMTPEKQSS
MEASUREMENT TYPE: ke, observed rate constant for the acid metabolite formation

Query block: Checklist item: ke, observed rate constant for the acid metabolite formation tested on recombinant human FAAH (rhFAAH) (Homo sapiens, UniProt O00519), entry CC(C)CNC(=O)CNc1cc(Cl)c(Cc2ccc(O)c(C(C)C)c2F)c(Cl)c1F [Compound 164] , value?
Result block: NC

Query block: // query: CNC(=O)CN(C)c1cc(Cl)c(Cc2ccc(O)c(C(C)C)c2)c(Cl)c1 [Compound 149]
Result block: NC

###

Target: TRβ (Homo sapiens, UniProt P10828)
Construct: expressed in transfected cells; host or cells: HEK293
Sequence (P10828 217-461 limits assumed): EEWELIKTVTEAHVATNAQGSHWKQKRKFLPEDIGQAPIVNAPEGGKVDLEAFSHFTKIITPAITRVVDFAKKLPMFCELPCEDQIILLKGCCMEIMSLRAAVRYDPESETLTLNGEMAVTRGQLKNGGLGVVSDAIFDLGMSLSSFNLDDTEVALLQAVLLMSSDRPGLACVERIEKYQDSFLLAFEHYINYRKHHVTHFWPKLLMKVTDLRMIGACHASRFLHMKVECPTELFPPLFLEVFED
Assay: TR reporter-gene assay (Gal4 DBD hybrid, luciferase), TRβ
Type: cell-based
Details: class symbols
MEASUREMENT TYPE: T3-SI (selectivity index, EC50 (TRα)/EC50 (TRβ))

Worked cases, T3-SI (selectivity index, EC50 (TRα)/EC50 (TRβ)) given:
Query block: Param item = Cc1c(F)c(CNCC(=O)O)cc(Cl)c1Cc1ccc(O)c(C(C)C)c1 [Compound 221] ; retrieve measured T3-SI (selectivity index, EC50 (TRα)/EC50 (TRβ)).
Result block: ++ (3× < T3-SI ≤ 30×)

Query block: Another molecule to check: CNC(=O)CSCc1cc(C)c(Cc2ccc(O)c(C(C)C)c2)c(Cl)c1F [Compound 217]
Result block: ++ (3× < T3-SI ≤ 30×)

Query block: Another molecule to look at: CC(c1ccc(F)cc1)c1cc(Cc2c(Cl)cc(CC(=O)O)cc2Cl)ccc1O (stereo not drawn) [Compound 9]
Result block: ++ (3× < T3-SI ≤ 30×)

Query block: Cool, now CC(C)c1cc(Cc2c(Cl)cc(OCCCCC(=O)O)cc2Cl)ccc1O [Compound 26]
Result block: + (T3-SI ≤ 3×)

Query block: Another molecule to check: CC(C)c1c(O)ccc(Cc2c(Cl)cc(NCC(=O)O)c(F)c2Cl)c1F [Compound 78]
Result block: ++ (3× < T3-SI ≤ 30×)

Query block: Cc1cc(/C=C/C(=O)O)cc(Cl)c1Cc1ccc(O)c(C(C)C)c1F [Compound 250] , same question.
Result block: + (T3-SI ≤ 3×)

Query block: And for Cc1cc(CCC(=O)O)cc(Cl)c1Cc1ccc(O)c(C(C)C)c1F [Compound 249] ?
Result block: ++ (3× < T3-SI ≤ 30×)

Query block: Do the same for CC(C)c1cc(Cc2c(Cl)cc(NCC(=O)O)c(F)c2Cl)ccc1O [Compound 75] please
Result block: ++ (3× < T3-SI ≤ 30×)

Query block: Again, but for CC(C)c1c(O)ccc(Cc2c(Cl)cc(CC(N)C(=O)O)cc2Cl)c1F (stereo not drawn) [Compound 207]
Result block: + (T3-SI ≤ 3×)

Query block: Next molecule up: CC(C)c1c(O)ccc(Cc2c(Cl)cc(CC(=O)O)cc2Cl)c1F [Compound 32]
Result block: ++ (3× < T3-SI ≤ 30×)

Others:
Query block: Suppose we examine the molecule CC(C)c1cc(Cc2c(Cl)cc(NC(=O)CC(=O)O)cc2Cl)ccc1O [Compound 22] ; what T3-SI (selectivity index, EC50 (TRα)/EC50 (TRβ)) value has been reported?
Result block: ++ (3× < T3-SI ≤ 30×)

Query block: Would you mind doing Cc1cc([S+]([O-])CC(=O)O)cc(Cl)c1Cc1ccc(O)c(C(C)C)c1 (stereo not drawn) [Compound 244] as well?
Result block: ++ (3× < T3-SI ≤ 30×)

Where do these numbers come from? They come from patent US12528761B2.
